Could you please report measured PBM binding z-score for the items listed next?
# Test system: THRa:RXRa (NR concentration 90 nM, RXRa partner concentration 90 nM)
# protocol: PBM binding z-score (relative to random genomic background probes); higher = stronger binding; sequences stand for … in GC…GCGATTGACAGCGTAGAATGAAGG
Answer using only a numeral; do not append any unit.

In: Reported PBM binding z-score for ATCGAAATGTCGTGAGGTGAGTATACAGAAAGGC : what is it?
Out: 1.74

In: Query (sequence): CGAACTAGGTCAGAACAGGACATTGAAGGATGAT ; field requested: PBM binding z-score
Out: 3.72

In: Can you share its PBM binding z-score? I mean this sequence: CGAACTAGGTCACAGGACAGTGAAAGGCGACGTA
Out: 2.86

In: Given the sequence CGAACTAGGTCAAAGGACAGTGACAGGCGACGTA , what is its reported PBM binding z-score?
Out: 2.69

In: Give the measured PBM binding z-score of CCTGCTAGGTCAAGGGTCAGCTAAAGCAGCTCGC .
Out: 3.95

In: Which measured PBM binding z-score value corresponds to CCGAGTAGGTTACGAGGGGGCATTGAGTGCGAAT ?
Out: 3.98

====

# System: LXRb homodimer (NR concentration 270 nM)
# protocol: PBM binding z-score (relative to random genomic background probes); higher = stronger binding; sequences stand for … in GC…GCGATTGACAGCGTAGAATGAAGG
quantity_measured: PBM binding z-score

In: Entry under review: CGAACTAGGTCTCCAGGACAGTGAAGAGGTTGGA . Reported PBM binding z-score?
Out: -1.01

In: What value of PBM binding z-score has been reported for the following sequence? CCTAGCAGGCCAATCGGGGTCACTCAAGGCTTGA
Out: -0.646

In: Item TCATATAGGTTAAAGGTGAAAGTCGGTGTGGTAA has what recorded PBM binding z-score?
Out: 0.683

In: Data request, read-out PBM binding z-score, for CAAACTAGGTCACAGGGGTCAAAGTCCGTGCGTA
Out: 1.67

In: Quick one: PBM binding z-score for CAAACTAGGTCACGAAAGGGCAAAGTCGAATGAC ?
Out: 0.531

In: What value of measured PBM binding z-score is listed for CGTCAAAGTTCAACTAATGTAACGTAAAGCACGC ?
Out: 2.34

In: Quick one: PBM binding z-score for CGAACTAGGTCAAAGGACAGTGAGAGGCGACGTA ?
Out: -0.441

In: Looking for the measured PBM binding z-score of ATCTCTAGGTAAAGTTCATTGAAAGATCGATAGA , can you help?
Out: 1.81

In: // lookup PBM binding z-score for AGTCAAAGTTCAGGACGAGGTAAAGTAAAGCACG
Out: 0.465

In: I would be grateful if you could share the reported PBM binding z-score for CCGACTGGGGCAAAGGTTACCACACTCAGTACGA .
Out: -0.702

In: Recorded PBM binding z-score of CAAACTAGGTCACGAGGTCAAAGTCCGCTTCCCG , please.
Out: 1.09

In: Form field: reported PBM binding z-score of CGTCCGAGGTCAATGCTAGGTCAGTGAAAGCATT
Out: 1.08

====

I'd be grateful if you could share measured PBM binding z-score for these entries.
# Test system: PPARa:RXRa (NR concentration 270 nM, RXRa partner concentration 90 nM)
# protocol: PBM binding z-score (relative to random genomic background probes); higher = stronger binding; sequences stand for … in GC…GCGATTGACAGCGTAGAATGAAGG
Form field (numeric): enter value without unit.

In: Entry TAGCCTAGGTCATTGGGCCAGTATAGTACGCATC has what PBM binding z-score?
Out: 3.82

In: What measured PBM binding z-score goes with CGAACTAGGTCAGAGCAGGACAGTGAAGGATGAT ?
Out: 3.19

In: Please look up its PBM binding z-score: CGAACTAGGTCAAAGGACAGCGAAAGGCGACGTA
Out: 5.76

In: Param item = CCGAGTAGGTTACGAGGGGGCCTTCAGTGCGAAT ; retrieve measured PBM binding z-score.
Out: 2.44

In: # PBM binding z-score lookup, item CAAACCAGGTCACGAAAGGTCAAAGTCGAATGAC
Out: 6.66

In: Reported PBM binding z-score for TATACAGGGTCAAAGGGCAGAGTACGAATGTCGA : what is it?
Out: 6.52

In: Data request, read-out PBM binding z-score, for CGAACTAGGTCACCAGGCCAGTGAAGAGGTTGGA
Out: 5.2

In: I am curious: what PBM binding z-score value has been reported for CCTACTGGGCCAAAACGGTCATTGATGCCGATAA ?
Out: 0.309

In: Query (sequence): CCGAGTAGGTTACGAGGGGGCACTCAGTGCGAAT ; field requested: PBM binding z-score
Out: 3.35

In: Need PBM binding z-score of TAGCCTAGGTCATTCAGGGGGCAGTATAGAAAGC , thanks.
Out: 4.6

In: Requested field: PBM binding z-score. Item: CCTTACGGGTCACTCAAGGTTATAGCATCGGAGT
Out: 4.73

In: I am curious: what PBM binding z-score value has been reported for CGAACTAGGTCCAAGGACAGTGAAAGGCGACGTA ?
Out: 0.459

====

# Test system: LXRa:RXRa (NR concentration 270 nM, RXRa partner concentration 90 nM)
# protocol: PBM binding z-score (relative to random genomic background probes); higher = stronger binding; sequences stand for … in GC…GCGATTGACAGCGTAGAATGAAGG
Assign class by PBM binding z-score: not lower than 2 means true; lower than 2 means false.

In: Is the recorded value of PBM binding z-score equal to or greater than 2 for this sequence? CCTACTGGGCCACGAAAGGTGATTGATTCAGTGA
Out: false

In: Please tell me: is the sequence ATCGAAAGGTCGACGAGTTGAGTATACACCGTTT at or over 2 in terms of PBM binding z-score?
Out: true

In: In plain terms: is recorded PBM binding z-score at least 2 for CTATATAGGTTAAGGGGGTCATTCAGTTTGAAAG ?
Out: true

In: Could you please find out whether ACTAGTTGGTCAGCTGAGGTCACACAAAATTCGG has PBM binding z-score that meets 2 or exceeds it?
Out: true

In: Please indicate if the recorded PBM binding z-score for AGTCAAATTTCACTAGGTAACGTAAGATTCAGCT meets or exceeds 2.
Out: false

In: // inclusive: PBM binding z-score at least 2? input: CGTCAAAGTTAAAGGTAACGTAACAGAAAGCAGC
Out: false

In: Please indicate if the recorded PBM binding z-score for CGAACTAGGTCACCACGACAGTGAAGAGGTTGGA meets or exceeds 2.
Out: true

In: Determine whether measured PBM binding z-score meets or exceeds 2 for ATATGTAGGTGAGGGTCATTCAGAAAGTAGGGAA
Out: true

In: PBM binding z-score >= 2 for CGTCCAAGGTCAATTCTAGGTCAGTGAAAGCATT ?
Out: true

In: Please indicate if the recorded PBM binding z-score for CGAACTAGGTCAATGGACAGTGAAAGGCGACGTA meets or exceeds 2.
Out: false

In: // inclusive: PBM binding z-score at least 2? input: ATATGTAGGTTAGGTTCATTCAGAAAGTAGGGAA
Out: true

In: Does the sequence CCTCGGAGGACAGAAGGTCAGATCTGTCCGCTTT have recorded PBM binding z-score that is 2 or more?
Out: false

The reported measurements were obtained from the supplement of paper PMC6555819.
